assay: levetiracetam blood plasma levels in aMCI patients; assay type: in vivo; conditions: human, 250 mg BID cohort (500 mg/day), SEM±0.92, read-out: mean levetiracetam blood plasma level
readout_kind: concentration at 2 weeks (ng/mL)
Numbers only here, please. The scale is ng/mL.

Q: Look up concentration at 2 weeks: CC[C@@H](C(N)=O)N1CCCC1=O [levetiracetam, (2S)-2-(2-oxopyrrolidin-1-yl) butanamide]
Result: 7900

====

assay: levetiracetam blood plasma levels in aged-impaired rats; type: in vivo; conditions: rat, other: osmotic minipumps, 10 mg/kg/day, 28 days, SEM±0.255, read-out: mean levetiracetam blood plasma level
readout_kind: concentration at 28 days
Kindly report the value followed by its unit.

Q: Look up concentration at 28 days: CC[C@@H](C(N)=O)N1CCCC1=O [levetiracetam, (2S)-2-(2-oxopyrrolidin-1-yl) butanamide]
Result: 3800 ng/mL

====

assay: levetiracetam blood plasma levels in aMCI patients; format: in vivo; settings: human, 62.5 mg BID cohort (125 mg/day), SEM±0.288, read-out: mean levetiracetam blood plasma level
readout_kind: concentration at 2 weeks (ng/mL)
Numbers only here, please. The scale is ng/mL.

Q: Look up concentration at 2 weeks: CC[C@@H](C(N)=O)N1CCCC1=O [levetiracetam, (2S)-2-(2-oxopyrrolidin-1-yl) butanamide]
Result: 2880

====

test: levetiracetam blood plasma levels in aged-impaired rats; format: in vivo; settings: rat, other: osmotic minipumps, 20 mg/kg daily dose, extrapolated from 10 and 60 mg/kg, read-out: estimated levetiracetam blood level
readout_kind: concentration at 28 days (ng/mL)
Numbers only here, please. The scale is ng/mL.

Q: Look up concentration at 28 days: CC[C@@H](C(N)=O)N1CCCC1=O [levetiracetam, (2S)-2-(2-oxopyrrolidin-1-yl) butanamide]
Result: 7600
